Values were extracted from paper PMC5794198.

experimental system: human SIRT1 (Homo sapiens, UniProt Q96EB6)
Sequence (Q96EB6 whole entry): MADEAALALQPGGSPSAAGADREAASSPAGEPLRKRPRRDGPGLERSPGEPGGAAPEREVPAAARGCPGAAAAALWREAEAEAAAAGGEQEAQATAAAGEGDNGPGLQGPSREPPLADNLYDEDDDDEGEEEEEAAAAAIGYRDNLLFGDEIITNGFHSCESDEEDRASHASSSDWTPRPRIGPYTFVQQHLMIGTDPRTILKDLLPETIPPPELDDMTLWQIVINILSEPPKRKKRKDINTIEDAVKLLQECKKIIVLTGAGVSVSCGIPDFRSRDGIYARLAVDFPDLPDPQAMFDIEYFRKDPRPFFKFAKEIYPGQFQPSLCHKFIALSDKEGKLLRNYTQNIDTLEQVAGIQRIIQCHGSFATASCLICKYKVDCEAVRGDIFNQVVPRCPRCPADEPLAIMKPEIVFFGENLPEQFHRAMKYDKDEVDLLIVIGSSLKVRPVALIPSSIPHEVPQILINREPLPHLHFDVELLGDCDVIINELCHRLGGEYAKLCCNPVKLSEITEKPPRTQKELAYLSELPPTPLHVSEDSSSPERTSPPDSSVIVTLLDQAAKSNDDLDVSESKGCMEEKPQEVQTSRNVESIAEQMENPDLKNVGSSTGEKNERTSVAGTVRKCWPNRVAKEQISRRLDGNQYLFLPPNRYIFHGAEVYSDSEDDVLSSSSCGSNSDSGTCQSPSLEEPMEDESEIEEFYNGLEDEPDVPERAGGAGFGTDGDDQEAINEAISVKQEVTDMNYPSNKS
protocol description: hSIRT1 deacetylase inhibition (CycLex kit)
Assay type: biochemical
condition description: 10 µM; n=2; N.I. = no inhibition
measurement kind: hSIRT1 Inhibition at 10 µM (% ± SD)

> print(dat)
                                 cpd.smiles  endpoint.value
1  O=C1c2cccc3cccc(c23)C(=O)N1CCCNc1ccc(NCCCN2C(=O)c3cccc4cccc(c34)C2=O)cc1            N.I.
2  C[N+]1(CCCN2C(=O)c3cccc4cccc(c34)C2=O)CCN(CCCN2C(=O)c3cccc4cccc(c34)C2=O)CC1            N.I.
3  O=C1c2cccc3cccc(c23)C(=O)N1CCCNCCCN1CCN(CCCNCCCN2C(=O)c3cccc4cccc(c34)C2=O)CC1            N.I.
